tested on: HOP-62 NSCLC; assay: NCI-60 one-dose screen, 48 h; conditions: 10 µM unless noted
About 83,000 compounds went through this panel and 20% of them were active in at least one assay; those are over-represented in the sample as a whole. The source made the active and inactive calls. How the source made its calls: active means growth percent below 10; inactive means the rest.
Labels: active, inactive

* O=C1Nc2cc(Cl)ccc2/C1=C\c1c(-c2ccc(F)cc2)nc2ccccn12 | active
* CCOC(=O)c1cc(C#N)n2ccc3ccccc3c12 | inactive
* CC(=O)[C@@H]1CC[C@]2(CO)CC[C@]3(C)[C@H](CC[C@@H]4[C@@]5(C)CCCNC(C)(C)[C@@H]5CC[C@]43C)[C@@H]12 | inactive
* CCOC(=O)c1ccc2c(c1)ncn2-c1ccc(NC(=O)Nc2cccc(C)c2)cc1 | inactive
* CCN(CC)CC[n+]1cc2cc(OC)c(OC)cc2c2ccc3cc4c(cc3c21)OCO4 | active
* COc1ccc(CNCCN2C(=O)c3ccc4c5c(ccc(c35)C2=O)C(=O)N(CCNCc2ccc(OC)c(OC)c2OC)C4=O)c(OC)c1OC | inactive
* CNC(=O)c1cc(Cn2nc(C)c(NC(=O)Nc3ccc(Cl)c(C(F)(F)F)c3)c2C)ccn1 | inactive
* C#CCNC(=O)[C@H](Cc1ccccc1)NC(=O)[C@]12CC[C@@H](C(=C)C)[C@@H]1[C@H]1CC[C@@H]3[C@@]4(C)CCC(=O)C(C)(C)[C@@H]4CC[C@@]3(C)[C@]1(C)CC2 | inactive

###

test system: K-562 leukemia; assay: NCI-60 one-dose screen, 48 h; conditions: 10 µM unless noted
About 83,000 compounds went through this panel and 20% of them were active in at least one assay; those are over-represented in the sample as a whole. The source made the active and inactive calls. Rule for the calls: active = growth percent below 10; inactive = the rest.
Labels: true for active, false for inactive

- COc1ccc(C/C(C)=C(/c2ccc(OCCCN(C)C)cc2)c2ccc(OC(C)=O)cc2)cc1: true
- O=C(c1nc2ccccc2[nH]1)C1C(c2ccc(Br)cc2)C2CC3CCCC[C@H]3N2[C@@]12C(=O)Nc1cc(Cl)ccc12 (some centres undefined): false
- COc1cc2c(c(OC)c1OC)CCC(c1cccc(NC(=O)c3cccc(Br)c3)c1)O2 (centres undefined): false
- C/C(=N\NC(=O)CSc1nc2ccccc2c(=O)n1CCc1ccc(S(N)(=O)=O)cc1)c1ccccn1: false
- COc1cc(/C=N/NC(=O)c2cnn3c2NC(c2ccccc2)C3)ccc1Oc1ccccc1 (centres undefined): false
- C=C(C)[C@@H]1CC[C@]2(C(=O)N3CCN(C)CC3)CC[C@]3(C)[C@H](CC[C@@H]4[C@@]5(C)CC[C@H](OCCC#N)C(C)(C)[C@@H]5CC[C@]43C)[C@@H]12: false
- CCc1ccc(CNc2ccc(N3CCOCC3)c(C(=O)O)c2)cc1: false
- COc1cc2c(-c3cc4c(cc3CNCCc3ccc5c(c3)OCO5)OCO4)cccc2c(OC)c1O: false
- Cc1ccc(-n2cc(-c3ccccc3)c3c2N=NN2CCN=C32)cc1: false

###

system: K-562 leukemia; assay: NCI-60 one-dose screen, 48 h (100 = growth as untreated, 0 = no growth, -100 = all killed); details: 10 µM unless noted
The panel holds about 83,000 compounds, 20% with a hit somewhere; the sample as a whole holds those more often.
// boundary case: growth equal to 50% maps to N; strictly smaller maps to Y

- CCOC(=O)[C@@H]1CCCN(S(=O)(=O)c2ccc(S(=O)(=O)N(CC)CC)c(F)c2)C1: Y
- COc1cc2oc(-c3cccc(C(=O)Nc4ccc5c(c4)OCO5)c3)cc(=O)c2c(O)c1OC: N
- CC(C)N1C(=O)S/C(=C2/SC(=O)N(C(C)C)C2=O)C1=O: N
- COc1ccc(/C=C2\Oc3cc(OCCCN4CCCCC4)ccc3C2=O)cc1OC: Y
- COc1cc2nc(-c3ccc(C(F)(F)F)cc3)cc(OCCN3CCCCC3)c2cc1OC: N
- N=C(N)c1ccc(OCCCCCCCCCCOc2ccc(C(=N)N)cc2)cc1: Y
- O=S(=O)(Nc1ccc(-n2cnc3cc(-c4ccc(O)cc4)ccc32)cc1)c1ccccc1: N
- COc1ccc(C(=O)C2C(C#N)C(C#N)C3C=Cc4ccccc4N32)cc1 (centres undefined): Y
- O=C(Nc1ccccc1C(=O)N/N=C(\c1ccccc1)c1ccccn1)c1ccc(F)cc1: Y
- N#Cc1c(NCc2ccccc2I)sc2c1CCCCC2: N
- O=[N+]([O-])c1ccc(NC(=S)N/N=C/c2cc3ccccc3n3nnnc23)cc1: Y
- Cc1ccc(-n2c3c(c(-c4ccccc4)c2-c2ccccc2)C2=NCCN2C=N3)cc1: N
- Oc1ccc(C(c2ccc(O)cc2)c2ccc(Br)cn2)cc1: N
- COc1cc2nc(-c3ccc(Cl)cc3)cc(OCCCN3CCCC3)c2cc1OC: Y
- COc1cc2nc(-c3ccc(Cl)cc3)cc(OCCCN3CCC(O)CC3)c2cc1OC: Y
- O=C(Nc1cccc(C(=O)N2CCc3ccc(Cl)cc32)c1)c1ccco1: Y
- COc1cc(C2C3CC4CCCC[C@H]4N3[C@@]3(C(=O)Nc4cc(Cl)ccc43)C2C(=O)c2nc3ccccc3[nH]2)cc(OC)c1OC (some centres undefined): Y
- O=C(c1ccccc1)N1N=C(c2ccc(-n3ccc(C(F)(F)F)n3)c(F)c2)CC1c1ccc[nH]1 (centres undefined): N
- COc1cc(NC(C)CCCNC(=O)CCC(=O)NCCCNCCCCCCCCNCCCNC(=O)CCC(=O)NCCCC(C)Nc2cc(OC)cc3cccnc23)c2ncccc2c1 (centres undefined): Y

###

system: KM12 colon; assay: NCI-60 one-dose screen, 48 h (100 = growth as untreated, 0 = no growth, -100 = all killed); details: 10 µM unless noted
Compounds without any hit were thinned out: in the full panel of roughly 83,000, 20% have a hit.
growth: recorded values
measurement.name: growth (%)

• CNC(=O)c1cccc(Cn2nc(C)c(NC(=O)c3ccc(COc4ccc(C(F)(F)F)cc4C)cc3)c2C)n1 = 65.4
• [O-][n+]1c(Cl)cc(Cl)c2ccccc21 = 95.1
• CC1=C(C(=O)/C=C/c2c[nH]c3ccccc23)C(c2ccccc2)NC(=S)N1 (centres undefined) = 106
• COc1ccc(-c2[nH][nH]c(=O)c2-c2nc3ccccc3s2)cc1 = 101
• COc1cc2c(=O)n(CCCN(C)C)c3c4cc5c(cc4ccc3c2cc1OC)OCO5 = 47.8
• CC(C)(C)c1cc(/C=N/NC(=O)c2ccccc2NC(=O)c2cccs2)c(O)c(C(C)(C)C)c1 = 25.6
• Cc1cc(Cl)nc(N(CCNc2ccnc3cc(Cl)ccc23)Cc2ccccn2)n1 = 64.1
• CCCCCC(=O)Oc1ccc(/C(=C(/C)Cc2ccc(OC)cc2)c2ccc(OCCCN(C)C)cc2)cc1 = 73.6
• O=C(c1nc2ccccc2[nH]1)C1C(c2ccc(Br)cc2)C2CC3CCCC[C@H]3N2[C@@]12C(=O)Nc1cc(Cl)ccc12 (some centres undefined) = 37.9

###

system: SK-MEL-5 melanoma; assay: NCI-60 one-dose screen, 48 h (100 = growth as untreated, 0 = no growth, -100 = all killed); conditions: 10 µM unless noted
This is part of a sample that, as a whole, favours compounds with a hit. Of some 83,000 tested, about 20% had one in any assay.
growth: recorded values
measurement.name: growth (%)

- Cc1cnc(C(=O)Nc2nc3ccc(S(=O)(=O)Nc4ccc(C5(C(F)(F)F)CC5)cc4)cc3[nH]2)cn1: -3.91
- O=C(CSc1nc2ccccc2[nH]1)NCc1ccccc1: 102
- Cn1nc(CC#N)c2c(=N)n(N)cnc21: 111
- Cn1ccnc1C(=O)/C=C/c1ccc(CC(=O)Nc2ccc(F)cc2)cc1: 34
- Cn1cc(CC2CC(=O)N(c3ccccc3)C2=O)sc1=NC(=O)c1ccccc1 (stereo not given): 101

###

system: EKVX NSCLC; assay: NCI-60 one-dose screen, 48 h (100 = growth as untreated, 0 = no growth, -100 = all killed); conditions: 10 µM unless noted
The panel holds about 83,000 compounds, 20% with a hit somewhere; the sample as a whole holds those more often.
measurement.name: growth (%)

- CC1(C)CC(O)CCCCCCOc2c(CN)cccc2NC(=O)c2nc(cnc2N)-c2ccc(cc2)S1(=O)=O (stereo not drawn): 86.2
- C[C@H](c1nc2ccc(N)cc2[nH]1)[C@H]1CC[C@H]2[C@@H]3CCC4=CC(=O)CC[C@]4(C)[C@H]3CC[C@]12C: 85.6
- COC(=O)N[C@H]1CCc2c(Cl)c(OC)c(OC)c(OC)c2-c2ccc(SC)c(=O)cc21: 47.8
- COc1ccc(/C=C/c2nc(Nc3ccc(S(=O)(=O)Nc4cc(C)on4)cc3)c3ccccc3n2)cc1: 71.6
- Fc1ccc2c(-c3cncn3CCc3ccccc3)c[nH]c2c1: 79.4
- COC(=O)/C=C1\S/C(=N\NC(=O)c2cc3ccc2/C=C\c2ccc(cc2)/C=C\3)N(Cc2ccccc2)C1=O: 77.7
- Nc1nc(Nc2ccccc2SSc2ccccc2Nc2nc(N)nc(-c3cccs3)n2)nc(-c2ccsc2)n1: 77.3
- Cc1ccc(C(=O)/C(=C\c2ccc([N+](=O)[O-])cc2)S(=O)Cc2ccc(F)cc2)cc1 (stereo not drawn): 58.5
